test system: Pseudomonas lachrymans ATCC 11921; experiment: microbe, parasite or virus in culture; format: cell-based; conditions: ATCC11921, 24 h, read-out: IC50, antimicrobial activity, P. lach.
Structures can show the parent of a compound that is named as a salt.
Field 'label' (enum: y / n). Set to y when IC50 is strictly under 20 µg/mL; else n.

The following compounds have reported results that may help.
- Compound: "COC1=CC2(C)OC(=O)c3c(O)cc(OC)cc3C2=C(O)C1=O (centres unmarked) [Botrallin (4)]"
  Label Class: "n"
- Compound: "COc1cc(O)c2c(=O)oc3cc(O)c(Cl)c(C)c3c2c1 [Palmariol B (1)]"
  Label Class: "y"
- Compound: "[H]/N=C(/N)N[C@H]1[C@H](O)[C@@H](O)[C@H](O[C@@H]2O[C@@H](C)[C@](O)(C=O)[C@H]2O[C@@H]2O[C@@H](CO)[C@H](O)[C@@H](O)[C@@H]2NC)[C@@H](N/C(N)=N\\[H])[C@@H]1O [streptomycin sulfate, reference compound]"
  Label Class: "y"

Strictly below 20 µg/mL: is that where IC50 of CC1OC(=O)c2c(O)cccc2C1O (centres unmarked) [4,8-dihydroxy-3-methylbenzopyran-1-one] sits?
y

Another compound to check: COc1cc(O)c2c(=O)oc3cc(O)cc(C)c3c2c1 [Alternariol 9-methyl ether (3)]
n
